assay: in vitro; settings: rat, retinal ganglion cells

| COMPOUND | cytotoxicity at 24 h, 10 µM |
| --- | --- |
| CC[C@@H](CO)NCCN[C@@H](CC)CO [ethambutol] | ≥ 50% |

====

test system: retinal ganglion cells; assay: cells; conditions: Rattus norvegicus, 24 h, read-out: half maximal effect of ethambutol toxicity to retinal ganglion cells, 24 hours incubation; viability by fluorescein diacetate

| CPD SMILES | EC50 / µM |
| --- | --- |
| CC[C@@H](CO)NCCN[C@@H](CC)CO | 10 |
